Tested system: chimeric Caspase-9 polypeptide
Sequence (P62942 2-108 F37V limits assumed): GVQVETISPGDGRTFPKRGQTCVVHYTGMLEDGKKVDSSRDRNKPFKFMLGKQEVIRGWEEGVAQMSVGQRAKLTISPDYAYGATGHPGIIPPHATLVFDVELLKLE
Test: Caspase-9 mutant classes and basal activity (Table 5)
Type: cell-based
Condition parameters: Caspase-9 mutant class; ligand IC50 compared with unmodified chimeric Caspase-9
Measured parameter: IC50

>>> reported_result("D330N (protein) GFGDVGALESLRGNADLAYILSMEPCGHCLIINNVNFCRESGLRTRTGSNIDCEKLRRRFSSLHFMVEVKGDLTAKKMVLALLELARQDHGALDCCVVVILSHGCQASHLQFPGAVYGTDGCPVSVEKIVNIFNGTSCPSLGGKPKLFFIQACGGEQKDHGFEVASTSPEDESPGSNPEPDATPFQEGLRTFDQLNAISSLPTPSDIFVSYSTFPGFVSWRDPKSGSWYVETLDDIFEQWAHSEDLQSLLLRVANAVSVKGIYKQMPGCFNFLRKKLFFKTSASRA")
"higher IC50"
>>> reported_result("F404T (protein) GFGDVGALESLRGNADLAYILSMEPCGHCLIINNVNFCRESGLRTRTGSNIDCEKLRRRFSSLHFMVEVKGDLTAKKMVLALLELARQDHGALDCCVVVILSHGCQASHLQFPGAVYGTDGCPVSVEKIVNIFNGTSCPSLGGKPKLFFIQACGGEQKDHGFEVASTSPEDESPGSNPEPDATPFQEGLRTFDQLDAISSLPTPSDIFVSYSTFPGFVSWRDPKSGSWYVETLDDIFEQWAHSEDLQSLLLRVANAVSVKGIYKQMPGCTNFLRKKLFFKTSASRA")
"much higher"
>>> reported_result("F319A (protein) GFGDVGALESLRGNADLAYILSMEPCGHCLIINNVNFCRESGLRTRTGSNIDCEKLRRRFSSLHFMVEVKGDLTAKKMVLALLELARQDHGALDCCVVVILSHGCQASHLQFPGAVYGTDGCPVSVEKIVNIFNGTSCPSLGGKPKLFFIQACGGEQKDHGFEVASTSPEDESPGSNPEPDATPAQEGLRTFDQLDAISSLPTPSDIFVSYSTFPGFVSWRDPKSGSWYVETLDDIFEQWAHSEDLQSLLLRVANAVSVKGIYKQMPGCFNFLRKKLFFKTSASRA")
"Similar"
>>> reported_result("T317A (protein) GFGDVGALESLRGNADLAYILSMEPCGHCLIINNVNFCRESGLRTRTGSNIDCEKLRRRFSSLHFMVEVKGDLTAKKMVLALLELARQDHGALDCCVVVILSHGCQASHLQFPGAVYGTDGCPVSVEKIVNIFNGTSCPSLGGKPKLFFIQACGGEQKDHGFEVASTSPEDESPGSNPEPDAAPFQEGLRTFDQLDAISSLPTPSDIFVSYSTFPGFVSWRDPKSGSWYVETLDDIFEQWAHSEDLQSLLLRVANAVSVKGIYKQMPGCFNFLRKKLFFKTSASRA")
"higher IC50"
>>> reported_result("D330A-S144D (protein) GFGDVGALEDLRGNADLAYILSMEPCGHCLIINNVNFCRESGLRTRTGSNIDCEKLRRRFSSLHFMVEVKGDLTAKKMVLALLELARQDHGALDCCVVVILSHGCQASHLQFPGAVYGTDGCPVSVEKIVNIFNGTSCPSLGGKPKLFFIQACGGEQKDHGFEVASTSPEDESPGSNPEPDATPFQEGLRTFDQLAAISSLPTPSDIFVSYSTFPGFVSWRDPKSGSWYVETLDDIFEQWAHSEDLQSLLLRVANAVSVKGIYKQMPGCFNFLRKKLFFKTSASRA")
"higher IC50"
>>> reported_result("N405Q (protein) GFGDVGALESLRGNADLAYILSMEPCGHCLIINNVNFCRESGLRTRTGSNIDCEKLRRRFSSLHFMVEVKGDLTAKKMVLALLELARQDHGALDCCVVVILSHGCQASHLQFPGAVYGTDGCPVSVEKIVNIFNGTSCPSLGGKPKLFFIQACGGEQKDHGFEVASTSPEDESPGSNPEPDATPFQEGLRTFDQLDAISSLPTPSDIFVSYSTFPGFVSWRDPKSGSWYVETLDDIFEQWAHSEDLQSLLLRVANAVSVKGIYKQMPGCFQFLRKKLFFKTSASRA")
"higher IC50"
>>> reported_result("C403T (protein) GFGDVGALESLRGNADLAYILSMEPCGHCLIINNVNFCRESGLRTRTGSNIDCEKLRRRFSSLHFMVEVKGDLTAKKMVLALLELARQDHGALDCCVVVILSHGCQASHLQFPGAVYGTDGCPVSVEKIVNIFNGTSCPSLGGKPKLFFIQACGGEQKDHGFEVASTSPEDESPGSNPEPDATPFQEGLRTFDQLDAISSLPTPSDIFVSYSTFPGFVSWRDPKSGSWYVETLDDIFEQWAHSEDLQSLLLRVANAVSVKGIYKQMPGTFNFLRKKLFFKTSASRA")
"Similar"

Please find the next molecule below.
GET /values?readout=IC50&item= F319W (protein) GFGDVGALESLRGNADLAYILSMEPCGHCLIINNVNFCRESGLRTRTGSNIDCEKLRRRFSSLHFMVEVKGDLTAKKMVLALLELARQDHGALDCCVVVILSHGCQASHLQFPGAVYGTDGCPVSVEKIVNIFNGTSCPSLGGKPKLFFIQACGGEQKDHGFEVASTSPEDESPGSNPEPDATPWQEGLRTFDQLDAISSLPTPSDIFVSYSTFPGFVSWRDPKSGSWYVETLDDIFEQWAHSEDLQSLLLRVANAVSVKGIYKQMPGCFNFLRKKLFFKTSASRA
much higher

The reported numbers originate from patent US20210147507A1.
